Where do the numbers come from? From the supplement of paper PMC11061612.

Let's look at some compounds and their measured combination Emax.
System: HL-60 (Acute Myeloid Leukemia)
Test: combination Emax (second highest fraction inhibited in the dose matrix, 72 h); higher = more inhibition; extreme values may be limits of the assay
The reply should be a number, written without any unit.

# count of solved cases: 5
compound="CC(=O)c1c(C)c2cnc(Nc3ccc(N4CCNCC4)cn3)nc2n(C2CCCC2)c1=O [Palbociclib] + CN(CC[C@H](CSC1=CC=CC=C1)NC2=C(C=C(C=C2)S(=O)(=O)NC(=O)C3=CC=C(C=C3)N4CCC(CC4)[C@H](C5=CC=CC=C5C6=CC=C(C=C6)Cl)O)S(=O)(=O)C(F)(F)F)CCO [AZD4320] (first compound max 10 µM, 7x7, partner max 1 µM)" reported_value=0.956
compound="COc1cccc(OCCCN)c1-c1cc(Nc2cnc(C#N)cn2)n[nH]1 [Prexasertib] + O=C(c1cc(Cc2n[nH]c(=O)c3ccccc23)ccc1F)N1CCN(C(=O)C2CC2)CC1 [Olaparib] (first compound max 1 µM, 7x7, partner max 10 µM)" reported_value=0.961
compound="NC1(C(=O)N[C@@H](CCO)c2ccc(Cl)cc2)CCN(c2ncnc3[nH]ccc23)CC1 [Capivasertib] + COc1nnc2ccc(N3CCC(c4ccc(OCCN5CCN(C)C(=O)[C@H]5C)cc4)CC3)nn12 [AZD5153] (first compound max 10 µM, 7x7, partner max 1 µM)" reported_value=1
compound="Cc1cc2ncnn2cc1Nc1ncc2c(n1)n(C1CCOCC1)c(=O)n2C [AZD7648] + CN(C)CCCOc1ccc(-c2ccc3ncc4c(c3c2)n(C2CCOCC2)c(=O)n4C)cn1 [AZD0156] (first compound max 10 µM, 7x7, partner max 1 µM)" reported_value=0.416
compound="COc1nnc2ccc(N3CCC(c4ccc(OCCN5CCN(C)C(=O)[C@H]5C)cc4)CC3)nn12 [AZD5153] + Cc1c2c(nn1C)CSCc1cc(n(C)n1)CSc1cc(c3ccccc3c1)OCCCc1c(C(=O)O)n(C)c3c-2c(Cl)ccc13 [AZD5991] (first compound max 1 µM, 7x7, partner max 1 µM)" reported_value=1

# input # lookup: combination Emax of CCN(CCO)CCCOc1ccc2c(Nc3cc(CC(=O)Nc4cccc(F)c4)[nH]n3)ncnc2c1 [AZD2811] + C[C@@H]1COCCN1C2=NC(=NC(=C2)C3(CC3)[S@](=N)(=O)C)C4=C5C=CNC5=NC=C4 [AZD6738] (first compound max 1 µM, 7x7, partner max 10 µM)
# output 0.899

# input Again, but for COc1nnc2ccc(N3CCC(c4ccc(OCCN5CCN(C)C(=O)[C@H]5C)cc4)CC3)nn12 [AZD5153] + Cn1cnc2c(F)c(Nc3ccc(Br)cc3Cl)c(C(=O)NOCCO)cc21 [Selumetinib] (first compound max 1 µM, 7x7, partner max 10 µM)
# output 0.966
